Biological target: human recombinant ENPP1 enzymes (Homo sapiens)
Experiment: ENPP1 Enzyme Assay with cGAMP Substrate (AMP-Glo)
Conditions: human recombinant ENPP1 3 ng/reaction, cGAMP 5 μM, 37° C. 90 minutes, average of two or more tests; read-out: Enzymatic activity IC50
Where a name gives a salt, the structure may show the parent alone.
observable: IC50

compound	measurementTarget	IC50
Cn1c(=O)ccc2c(N3CCC(CN)CC3)ccnc21 [Example 118, hydrochloride]	human recombinant ENPP1 enzymes (Homo sapiens)	> 10000 nM
NS(=O)(=O)NCCc1cccc(Nc2ccnc3[nH]c(=O)ccc23)c1 [Example 92, dihydrochloride]	human recombinant ENPP1 enzymes (Homo sapiens)	< 1000 nM

stdin: So what does the record say about IC50 for CCN(Cc1ccc(-c2ccnc3[nH]c(=O)ccc23)cc1F)S(N)(=O)=O.Cl [Example 53, hydrochloride] ?
stdout: < 1000 nM

stdin: Again, but for CC(NS(N)(=O)=O)c1ccc(-c2ccnc3[nH]c(=O)ccc23)cc1.Cl (centres unmarked) [Example 45, hydrochloride]
stdout: < 1000 nM

stdin: // next record CC(C)(N)c1ccc(-c2ccnc3[nH]c(=O)ccc23)cc1 [Example 16, hydrochloride]
stdout: 1000 to 10000 nM

stdin: How about this compound: NS(=O)(=O)N1Cc2ccc(-c3ccnc4[nH]c(=O)ccc34)cc2C1 [Example 64, hydrochloride]
stdout: < 1000 nM

stdin: Further, for C[C@@H](N)c1ccc(-c2ccnc3[nH]c(=O)ccc23)cc1.Cl [Example 15, hydrochloride] ?
stdout: < 1000 nM

stdin: Next entry: CN(c1ccc2c(c1)CN(S(N)(=O)=O)CC2)c1ccnc2[nH]c(=O)ccc12 [Example 108, dihydrochloride]
stdout: > 10000 nM

====

Target: human recombinant ENPP1 enzymes (Homo sapiens, UniProt P22413)
Sequence (P22413 whole entry): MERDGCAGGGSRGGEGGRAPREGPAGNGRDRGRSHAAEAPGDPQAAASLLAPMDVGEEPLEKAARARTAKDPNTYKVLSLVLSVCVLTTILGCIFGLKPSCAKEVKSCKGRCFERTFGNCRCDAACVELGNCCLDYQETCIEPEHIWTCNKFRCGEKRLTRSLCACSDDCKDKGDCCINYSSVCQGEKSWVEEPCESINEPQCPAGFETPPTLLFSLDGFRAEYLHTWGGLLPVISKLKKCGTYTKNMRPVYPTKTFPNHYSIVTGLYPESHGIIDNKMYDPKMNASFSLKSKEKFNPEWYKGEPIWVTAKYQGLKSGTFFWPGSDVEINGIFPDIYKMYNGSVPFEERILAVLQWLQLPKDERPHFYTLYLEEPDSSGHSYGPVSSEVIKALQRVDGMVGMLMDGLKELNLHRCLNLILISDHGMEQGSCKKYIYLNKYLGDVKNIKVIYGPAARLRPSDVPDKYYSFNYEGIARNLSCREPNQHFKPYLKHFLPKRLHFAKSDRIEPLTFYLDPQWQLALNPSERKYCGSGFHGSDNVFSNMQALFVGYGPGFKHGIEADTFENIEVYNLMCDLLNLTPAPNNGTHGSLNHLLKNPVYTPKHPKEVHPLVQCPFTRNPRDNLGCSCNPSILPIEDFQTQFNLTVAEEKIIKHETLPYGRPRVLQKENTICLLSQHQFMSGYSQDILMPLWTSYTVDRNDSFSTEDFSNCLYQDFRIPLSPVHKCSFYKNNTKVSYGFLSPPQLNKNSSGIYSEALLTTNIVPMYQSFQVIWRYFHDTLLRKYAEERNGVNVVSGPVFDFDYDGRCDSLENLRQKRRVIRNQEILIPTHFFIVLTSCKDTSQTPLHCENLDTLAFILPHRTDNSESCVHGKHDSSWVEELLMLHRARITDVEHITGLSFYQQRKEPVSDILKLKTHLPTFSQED
Test: ENPP1 Enzyme Assay with cGAMP Substrate (AMP-Glo)
Conditions: human recombinant ENPP1 3 ng/reaction, cGAMP 5 μM, 37° C. 90 minutes, average of two or more tests; read-out: Enzymatic activity IC50
pIC50: −log10 of the molar value. Where a name gives a salt, the structure may show the parent alone.
observable: pIC50

compound	observable	experimentalValue
CNCc1ccc(-c2ccnc3[nH]c(=O)ccc23)cc1F.Cl [Example 23, hydrochloride]	pIC50	5.00 to 6.00

stdin: What pIC50 value was documented for this compound, NS(=O)(=O)N(Cc1ccc(Nc2ccnc3[nH]c(=O)ccc23)cc1)C1CC1 [Example 99, dihydrochloride] ?
stdout: 5.00 to 6.00

stdin: Cool, now NS(=O)(=O)N1CCc2ccc(-c3ccnc4[nH]c(=O)ccc34)cc2C1 [Example 65, hydrochloride]
stdout: > 6.00

stdin: Next up: Cl.NCc1ccc(-c2ccnc3[nH]c(=O)ccc23)c(F)c1F [Example 13, hydrochloride]
stdout: > 6.00

====

Molecular target: human recombinant ENPP1 enzymes (Homo sapiens)
Assay: ENPP1 Enzyme Assay with cGAMP Substrate (AMP-Glo)
Details: human recombinant ENPP1 3 ng/reaction, cGAMP 5 μM, 37° C. 90 minutes, average of two or more tests; read-out: Enzymatic activity IC50
Method: ENPP1 hydrolyzes nucleotides or nucleotide derivatives to produce nucleoside-5′-monophosphate and pyrophosphate. In addition, ENPP1 hydrolyzes 2′,3′-cGAMP to produce 5′-adenosine monophosphate (AMP) and 5′-guanosine monophosphate (GMP). AMP produced from the reaction is measured using the AMP-Glo® kit (Promega). The AMP-Glo® kit contains two reagents. […] The second reagent converts ADP to ATP which is used to generate luminescence in the luciferase reaction. […]
Counter-ions that a name gives are not always drawn.
observable: IC50

stdin: Could you share what IC50 was measured for NS(=O)(=O)NCc1ccc(F)c(Nc2ccnc3[nH]c(=O)ccc23)c1 [Example 91, dihydrochloride] , tested on human recombinant ENPP1 enzymes (Homo sapiens)?
stdout: < 1 µM

====

Target: human recombinant ENPP1 enzymes (Homo sapiens, UniProt P22413)
Assay: ENPP1 Enzyme Assay with cGAMP Substrate (AMP-Glo)
Conditions: human recombinant ENPP1 3 ng/reaction, cGAMP 5 μM, 37° C. 90 minutes, average of two or more tests; read-out: Enzymatic activity IC50
pIC50: −log10 of the molar value. Structures can show the parent of a compound that is named as a salt.
observable: pIC50

Examples with answers:
molecule	measurementTarget	observable	experimentalValue
Cl.O=c1ccc2c(-c3cc4c(cc3F)CCNC4)ccnc2[nH]1 [Example 28, hydrochloride]	human recombinant ENPP1 enzymes (Homo sapiens, UniProt P22413)	pIC50	> 6.00
Nc1ccc(Nc2ccnc3[nH]c(=O)ccc23)cc1 [Example 81, dihydrochloride]	human recombinant ENPP1 enzymes (Homo sapiens, UniProt P22413)	pIC50	> 6.00
C[C@@H](c1ccc(-c2ccnc3[nH]c(=O)ccc23)cc1)N(C)S(N)(=O)=O [Example 61, hydrochloride]	human recombinant ENPP1 enzymes (Homo sapiens, UniProt P22413)	pIC50	> 6.00

stdin: I'd like to know its pIC50. The molecule in question is NCC1CCN(c2ccnc3[nH]c(=O)ccc23)CC1 [Example 114, hydrochloride]
stdout: > 6.00

====

Parameter: pIC50. Scope: all listed entries.
Molecular target: human recombinant ENPP1 enzymes (Homo sapiens, UniProt P22413)
Experiment: ENPP1 Enzyme Assay with cGAMP Substrate (AMP-Glo)
Settings: human recombinant ENPP1 3 ng/reaction, cGAMP 5 μM, 37° C. 90 minutes, average of two or more tests; read-out: Enzymatic activity IC50
Protocol: ENPP1 hydrolyzes nucleotides or nucleotide derivatives to produce nucleoside-5′-monophosphate and pyrophosphate. In addition, ENPP1 hydrolyzes 2′,3′-cGAMP to produce 5′-adenosine monophosphate (AMP) and 5′-guanosine monophosphate (GMP). AMP produced from the reaction is measured using the AMP-Glo® kit (Promega). The AMP-Glo® kit contains two reagents. […] The second reagent converts ADP to ATP which is used to generate luminescence in the luciferase reaction. […]
pIC50: −log10 of the molar value. Structures can show the parent of a compound that is named as a salt.

compound	pIC50
O=c1ccc2c(Nc3cc4c(cc3F)CNCC4)ccnc2[nH]1 [Example 86, dihydrochloride]	5.00 to 6.00

stdin: I'd like to know its pIC50. The compound in question is C[C@@H](NS(N)(=O)=O)c1ccc(-c2ccnc3[nH]c(=O)ccc23)cc1 [Example 46, hydrochloride]
stdout: > 6.00

stdin: Follow-up item: CC(C)(N)c1ccc(-c2ccnc3c2CCC(=O)N3)cc1 [Example 134, hydrochloride]
stdout: > 6.00

stdin: And what about the compound O=c1ccc2c(-c3ccc(CNS(=O)(=O)C4CC4)cc3)ccnc2[nH]1 [Example 71] ?
stdout: 5.00 to 6.00

stdin: Now give it for NCc1cccc(Nc2ccnc3[nH]c(=O)ccc23)c1 [Example 77, dihydrochloride] too.
stdout: > 6.00

stdin: Also, O=c1ccc2c(Nc3ccc4c(c3)CNCCC4)ccnc2[nH]1 [Example 87, dihydrochloride] please.
stdout: < 5.00

stdin: Follow-up entry: NS(=O)(=O)NC1Cc2ccc(Nc3ccnc4[nH]c(=O)ccc34)cc2C1 (stereo not shown) [Example 107, dihydrochloride]
stdout: > 6.00

stdin: Proceed to NS(=O)(=O)N1CCc2ccc(Nc3ccnc4c3CCC(=O)N4)cc2C1 [Example 144, hydrochloride]
stdout: > 6.00

stdin: Thanks! And O=c1ccc2c(Nc3ccc4c(c3)CCNC4)ccnc2[nH]1 [Example 85, dihydrochloride] ?
stdout: > 6.00

stdin: Now give it for CC(C)NCc1ccc(-c2ccnc3[nH]c(=O)ccc23)c(F)c1.Cl [Example 21, hydrochloride] too.
stdout: < 5.00

stdin: Now the compound Cl.NCc1ccc(-c2ccnc3[nH]c(=O)ccc23)cc1F [Example 12, hydrochloride]
stdout: > 6.00

stdin: Same read-out for Cl.NS(=O)(=O)N(Cc1ccc(-c2ccnc3[nH]c(=O)ccc23)cc1F)C1CC1 [Example 54, hydrochloride] ?
stdout: > 6.00

stdin: Follow-up item: NS(=O)(=O)NCc1ccc(Nc2ccnc3[nH]c(=O)ccc23)c(Cl)c1 [Example 100, dihydrochloride]
stdout: 5.00 to 6.00

stdin: Input O=c1ccc2c(N3CCC4(CCNC4)CC3)ccnc2[nH]1 [Example 117, hydrochloride]
stdout: 5.00 to 6.00

stdin: Similarly, Cl.NS(=O)(=O)N1CCc2ccc(-c3ccnc4c3CCC(=O)N4)cc2C1 [Example 145, hydrochloride] ?
stdout: > 6.00

stdin: Follow-up entry: NS(=O)(=O)NCc1ccc(-c2ccnc3[nH]c(=O)ccc23)cc1 [Example 40]
stdout: > 6.00

====

System: interferon regulatory factor 3 (IRF3) in HCT116-Dual cells
Experiment: HCT116-Dual Cell Luciferase Assay (ISG54 promoter, IRF3 activity)
Format: cell-based
Conditions: ENPP1 inhibitor usually 10 μM plus cGAMP 10 μM, 48 hours, Lucia luciferase
Where a name gives a salt, the structure may show the parent alone.
observable: Cellular activity: increase in IRF3 by the compound compared to cGAMP, as fold

compound	measurementTarget	experimentalValue
C[C@@H](c1ccc(-c2ccnc3[nH]c(=O)ccc23)cc1)N(C)S(N)(=O)=O [Example 61, hydrochloride]	interferon regulatory factor 3 (IRF3) in HCT116-Dual cells	B (1< Fold <2)
Cl.Nc1ccc(F)c(-c2ccnc3[nH]c(=O)ccc23)c1	interferon regulatory factor 3 (IRF3) in HCT116-Dual cells	B (1< Fold <2)
Cl.O=c1ccc2c(-c3ccc(CNC4CC4)c(F)c3)ccnc2[nH]1	interferon regulatory factor 3 (IRF3) in HCT116-Dual cells	A (>2)
Cl.O=c1ccc2c(-c3ccc(CNC4CC4)cc3F)ccnc2[nH]1	interferon regulatory factor 3 (IRF3) in HCT116-Dual cells	B (1< Fold <2)
Cl.NCc1ccc(-c2ccnc3[nH]c(=O)ccc23)c(F)c1F	interferon regulatory factor 3 (IRF3) in HCT116-Dual cells	A (>2)

stdin: // Cellular activity: increase in IRF3 by the compound compared to cGAMP, as fold lookup, key: NS(=O)(=O)Nc1ccc(Nc2ccnc3[nH]c(=O)ccc23)cc1 [Example 97, dihydrochloride]
stdout: B (1< Fold <2)

stdin: Quick one: CCN(Cc1ccc(-c2ccnc3[nH]c(=O)ccc23)c(F)c1)S(N)(=O)=O.Cl
stdout: B (1< Fold <2)

stdin: // query: NS(=O)(=O)NCc1ccc(-c2ccnc3[nH]c(=O)ccc23)cc1F
stdout: B (1< Fold <2)

stdin: Moving on to the next compound: CC(N)c1ccc(-c2ccnc3[nH]c(=O)ccc23)cc1.Cl (stereo not drawn)
stdout: B (1< Fold <2)

stdin: For NS(=O)(=O)N1CCc2ccc(Nc3ccnc4[nH]c(=O)ccc34)cc2C1 [Example 102, dihydrochloride] then?
stdout: A (>2)

stdin: How about Cl.NCc1ccc(-c2ccnc3[nH]c(=O)ccc23)cc1F ?
stdout: A (>2)

stdin: And NS(=O)(=O)NCc1ccc(-c2ccnc3[nH]c(=O)ccc23)c(F)c1F [Example 43, hydrochloride] ?
stdout: B (1< Fold <2)

stdin: Request: Cl.NS(=O)(=O)N1CCc2ccc(-c3ccnc4c3CCC(=O)N4)cc2C1
stdout: B (1< Fold <2)

stdin: How about this compound: NS(=O)(=O)NCc1cc(-c2ccnc3[nH]c(=O)ccc23)ccc1F [Example 38, hydrochloride]
stdout: B (1< Fold <2)

stdin: Entry to check: Cl.NCc1ccc(-c2ccnc3[nH]c(=O)ccc23)c(F)c1
stdout: A (>2)

stdin: Next up: CC(NS(N)(=O)=O)c1ccc(-c2ccnc3[nH]c(=O)ccc23)cc1.Cl (stereo not drawn)
stdout: B (1< Fold <2)
